Test system: ATP;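 further: ATP exposure 15 min at 22 °C before imaging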
PROTOCOL_SUMMARY: switch fluorescence ratio, 500 uM ATP over buffer (Cy3 cluster intensity, sum of 5 cycles each) (fold (ratio)); higher = stronger signal-on switching upon ATP binding; sequences stand for … in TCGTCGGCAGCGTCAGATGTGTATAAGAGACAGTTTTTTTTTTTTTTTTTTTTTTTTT…TC
SETUP_CONDITIONS: aptamer strand: ATP DNA aptamer (quencher-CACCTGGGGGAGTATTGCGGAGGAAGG + anchor), 100 nM annealed; ATP concentration: 500 uM
Label 1.0 when switch fluorescence ratio is at or above 1; anything below gets 0.0.

# example entries with known answers
{"columns": ["RESIDUES", "TARGET_OR_SYSTEM", "GROUP_LABEL"],
 "data": [
  ["TTCCTCAGAC", "ATP", 1.0],
  ["CCAGGTTATC", "ATP", 1.0],
  ["TGGGAATGAC", "ATP", 1.0],
  ["AAAACGAGAT", "ATP", 1.0]
]}

Prompt: Please check the record `ATAGGGACAC` and state if its switch fluorescence ratio is at or above 1.
Completion: 1.0

Prompt: Please check the record `GTGTCGCGGG` and state if its switch fluorescence ratio is at or above 1.
Completion: 0.0
